System: compound 48/80-induced gastric lesions
Test: gastric lesion test: lesions induced by compound 48/80
Type: in vivo
Details: Rattus norvegicus; rats; compound 48/80; distension of the stomach completely absent in 50% of rats; read-out: gastric lesion test ED50
Structures can show the parent of a compound that is named as a salt.
MEASURED_PROPERTY: ED50 (mg/kg)

COMPOUND	U	EXPERIMENTAL_RESULT
Cc1nc2n(c(=O)c1CCN1CCC(c3c[nH]c4ccccc34)CC1)CCCS2	mg/kg	0.02
Cc1nn2c(=O)c(CCN3CCC(c4c[nH]c5ccccc45)CC3)c(C)nc2s1	mg/kg	0.04
Cc1nc2sccn2c(=O)c1CCN1CCC(c2c[nH]c3ccccc23)CC1	mg/kg	0.08
Cc1nc2scc(C)n2c(=O)c1CCN1CCC(c2c[nH]c3ccc(F)cc23)CC1	mg/kg	0.31
Cc1nc2sc(C)c(C)n2c(=O)c1CCN1CCC(c2c[nH]c3ccccc23)CC1	mg/kg	0.16
Cc1nc2n(c(=O)c1CCN1CCC(C(=O)c3ccc(F)cc3)CC1)CCS2	mg/kg	0.0005
Cc1nc2scc(C)n2c(=O)c1CCN1CCC(c2c[nH]c3ccccc23)CC1	mg/kg	0.0025
Cc1nn2c(=O)c(CCN3CCC(C(=O)c4ccc(F)cc4)CC3)c(C)nc2s1	mg/kg	0.0025
Cc1nc2sc(C)c(C)n2c(=O)c1CCN1CCC(C(=O)c2ccc(F)cc2)CC1	mg/kg	0.01
Cc1nc2sccn2c(=O)c1CCN1CCC(C(=O)c2ccc(F)cc2)(c2ccccc2)CC1	mg/kg	2.5
Cc1nc2n(c(=O)c1CCN1CCC(c3c[nH]c4ccccc34)CC1)CCS2	mg/kg	0.04
Cc1nc2scc(C)n2c(=O)c1CCN1CCC(C(=O)c2ccc(F)cc2)CC1	mg/kg	0.01
Cc1nc2sc3ccccc3n2c(=O)c1CCN1CCC(c2c[nH]c3ccccc23)CC1	mg/kg	0.04
Cc1nc2sccn2c(=O)c1CCN1CCC(c2c[nH]c3ccc(F)cc23)CC1	mg/kg	0.08
Cc1nc2sccn2c(=O)c1CCN1CCC(C)(C(=O)c2ccc(F)cc2)CC1 [compound 9, monohydrochloride]	mg/kg	0.005
Cc1nc2n(c(=O)c1CCN1CC[C@H](c3c[nH]c4ccccc34)[C@H](C)C1)CCS2 (relative stereo)	mg/kg	2.5
Cc1nc2sccn2c(=O)c1CCN1CCC(C(=O)c2ccc(F)cc2)CC1	mg/kg	0.005
Cc1nc2n(c(=O)c1CCN1CCC(C(=O)c3ccc(F)cc3)CC1)CCCS2	mg/kg	0.01
Cc1nc2sc3c(n2c(=O)c1CCN1CCC(c2c[nH]c4ccccc24)CC1)CCC3	mg/kg	0.31
